- System: MS2 coat protein
- test summary: apparent KD of MS2 coat protein; designed switch direction (-1 OFF switch, 1 ON switch): -1; higher = weaker reporter binding
- assay setup: input ligand: none
Classification field: enter 1 for apparent KD of MS2 coat protein values not below 70 nM, -1 for values below it.

Worked examples, 7 sequences total:
input sequence	category label
GCAGGUUAAGUCAGGAUAUACCUAUGGAUACAUAGGUAGAAGGGACAUGAGGAUCACCCAUGUGCCUCACCUGC [Mod of Eli - Jieux - Brourd's mod of Exclusion 4] (Eterna round: R97, puzzle: Brourd's mod of Exclusion 4)	-1
CUAACAUGCUGGUGAUCAUACAUGAGGAUCACCCAUGUAACAAGCUUUUUGUUCGUCUUAAUUUAAUUGAUUACUAG [Stov1/8-B3] (Eterna round: R97, puzzle: Sensor, turn-off variant 1)	1
UAAAAUUCGCGAGGAUAUGCGACCUAAUGGGAGGAUUGUCACAUGAGGAUCACCCAUGUCAGUCAGCAGAAGGCGCACCUGGUU [Anedmaon] (Eterna round: R96, puzzle: Exclusion NG 2)	1
CGUGUGUCAGGAUAUUAGUAAUGUAUGGAUACAUAUAUUACUGAGAAGGGACAUGAGGAUCACCCAUGUAUACG [JR_Ex4_Sub059] (Eterna round: R97, puzzle: Exclusion 4)	1
CUGUACUAAGGAUAUACAUGAGGAUCACCCAUGUCGAUGGUAGGCUGACCGUGACUCCGUAGAAGGUAGAUUCC [Eternabot (L1) Solution 77] (Eterna round: R97, puzzle: Exclusion 3)	1
GGAUCGAGUGUGAGGAUAUACCUAUGGAUACAUAGGUAGAAGGCACAUGAGGAUCACCCAUGUUCCAACGGUCC [Eli bmx4 4.11] (Eterna round: R97, puzzle: Brourd's mod of Exclusion 4)	1
UUUUUAUAUGAAGGAUAUACUUAACAUGAGGAUCACCCAUGUGGUGUUGUGAGUGAGUGAGUUUAGUAGAAGGUCAAUUAGUGU [JMF's solution 102] (Eterna round: R96, puzzle: Exclusion NG 2)	1

Now for another entry.
Decide: is the reported value of apparent KD of MS2 coat protein for UAUUAGCAAGCGAGAUCCCACAUGAGGAUCACCCAUGUAAUAAGCAUCCAGAAUUACUGGGUGCAAGCUCGUCUUAU [Winner reversed engineered 10] (Eterna round: R97, puzzle: Sensor, turn-off variant 1) equal to or greater than 70 nM? -1
